Sourced from paper PMC10786891

Tgt: T1, EsCas13d, nuclease-dead (Eubacterium siraeum, UniProt B0MS50, R295A;H300A;R849A;H854A)
T1 sequence: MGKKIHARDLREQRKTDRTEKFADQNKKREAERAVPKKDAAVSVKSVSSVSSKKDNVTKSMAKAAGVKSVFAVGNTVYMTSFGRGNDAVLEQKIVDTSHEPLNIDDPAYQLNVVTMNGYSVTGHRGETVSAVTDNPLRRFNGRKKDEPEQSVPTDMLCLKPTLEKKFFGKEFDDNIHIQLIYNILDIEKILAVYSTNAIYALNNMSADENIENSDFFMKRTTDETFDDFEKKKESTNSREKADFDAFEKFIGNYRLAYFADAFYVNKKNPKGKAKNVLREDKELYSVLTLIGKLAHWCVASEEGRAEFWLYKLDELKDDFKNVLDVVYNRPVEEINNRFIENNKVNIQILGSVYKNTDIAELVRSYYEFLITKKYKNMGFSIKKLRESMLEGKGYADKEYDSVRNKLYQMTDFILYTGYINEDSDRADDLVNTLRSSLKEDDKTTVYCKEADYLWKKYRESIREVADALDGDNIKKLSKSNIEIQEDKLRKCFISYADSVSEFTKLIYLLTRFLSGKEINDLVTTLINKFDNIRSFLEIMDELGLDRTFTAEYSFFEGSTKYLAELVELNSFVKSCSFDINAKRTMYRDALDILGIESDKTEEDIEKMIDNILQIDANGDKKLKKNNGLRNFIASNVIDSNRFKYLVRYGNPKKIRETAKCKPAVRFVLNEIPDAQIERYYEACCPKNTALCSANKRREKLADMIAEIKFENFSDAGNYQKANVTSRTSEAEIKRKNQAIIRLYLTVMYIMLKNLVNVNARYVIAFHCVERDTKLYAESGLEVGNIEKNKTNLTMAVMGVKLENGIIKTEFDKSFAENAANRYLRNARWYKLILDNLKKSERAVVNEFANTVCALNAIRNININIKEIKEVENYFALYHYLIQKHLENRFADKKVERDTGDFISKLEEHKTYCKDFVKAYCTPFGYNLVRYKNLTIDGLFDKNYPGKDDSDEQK
Protocol Notes: crRNA (strand 1, pre-loaded); Mg2+; 40 mM Tris-HCl pH 7.5, 150 mM NaCl, 6 mM MgCl2, 1 mM DTT, 0.1% Tween-20, 0.2 mg/ml BSA; 25 C; 10 min per concentration, then washed
Condition Details: tags: His6-TwinStrep-SUMO cleaved; N-terminal SNAP kept (SNAP-Surface 488); label: 3' end held by stalled T7 RNA polymerase
Quantity Name: pKd
Note on pKd: it is the negative log10 of concentration, concentration in mol/L.

Challenge: What pKd value was documented for this binder, target 3 insA 3' of 8,insC 3' of 4 (mixed) RNA 1: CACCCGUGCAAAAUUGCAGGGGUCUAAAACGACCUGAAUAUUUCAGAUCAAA RNA 2: GGGAAUGGAUCCACAUCUACGAAUUCGUUUUUGAUCUGAAAUAUAUCAGCGUCUGCAGAUCGGAAGAGCACACGU ?
Response given: 7.21

Challenge: What pKd value was documented for this binder, target 1 insG 3' of 16 (mixed) RNA 1: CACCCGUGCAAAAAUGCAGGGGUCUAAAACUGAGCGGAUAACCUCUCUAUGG RNA 2: GGGAAUGGAUCCACAUCUACGAAUUCGUACCAUAGAGGAGGUUAUCCGCUCACCGAGAUCGGAAGAGCACACGU ?
Response given: 7.92

Challenge: What pKd value was documented for this binder, target 1 MT 5'PFS AGG 3'PFS CCG (mixed) RNA 1: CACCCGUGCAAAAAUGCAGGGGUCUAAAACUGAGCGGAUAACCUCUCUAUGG RNA 2: GGGAAUGGAUCCACAUCUACGAAUUCAGGCCAUAGAGAGGUUAUCCGCUCACCGAGAUCGGAAGAGCACACGU ?
Response given: 7.55

Challenge: What pKd value was documented for this binder, target 1 insA 3' of 12,insG 3' of 4 (mixed) RNA 1: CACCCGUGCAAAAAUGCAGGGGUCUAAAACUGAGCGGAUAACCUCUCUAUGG RNA 2: GGGAAUGGAUCCACAUCUACGAAUUCGUACCAUAGAGAGGAUUAUCCGCGUCACCGAGAUCGGAAGAGCACACGU ?
Response given: 7.79
